These measurements were taken from patent US8481732B2.

molecular target: UniProt:Q9H3N8; experiment: H4 Membrane Binding Assay (3H-Histamine displacement); conditions: membranes of recombinant HEK293SFM cells, 10 nM 3H-Histamine, 1.5 hr at room temperature
pIC50: −log10 of the molar value.
measured metric: pIC50

1) CN1CCN(c2cc(-c3ccc4c(c3)CN(C(=O)CC(C)(C#N)C3CC3)CC4)nc(N)n2)CC1 (stereo not shown)	6.98

[a] C[C@H](NC(=O)c1ccc2c(N3CCN(C)CC3)nc(N)nc2c1)c1ccc2ccccc2c1
[b] CC(NC(=O)c1ccc2c(N3CCN(C)CC3)nc(N)nc2c1)c1cccc(Oc2ccc(Cl)cc2C#N)c1 (stereo not shown)
[c] CN1CCN(c2cc(-c3ccc4c(c3)CN(C(=O)NC3CCC(C(F)(F)F)CC3)CC4)nc(N)n2)CC1 (stereo not shown)
Could you please sort these 3 entries by pIC50 from high to low? Please list each label once, in the requested order. b, c, a

====

biological target: histamine H4 receptor (Homo sapiens, UniProt Q9H3N8); assay: H4 Membrane Binding Assay (3H-Histamine displacement); details: membranes of recombinant HEK293SFM cells, 10 nM 3H-Histamine, 1.5 hr at room temperature
pIC50: −log10 of the molar value.
measured metric: pIC50

Some solved cases for reference:
1. CN1CCN(c2cc(-c3ccc4c(c3)CN(C(=O)C3CCC3)CC4)nc(N)n2)CC1	6.77
2. CC(C)OC(=O)N1CCc2ccc(-c3cc(N4CCN(C)CC4)nc(N)n3)cc2C1	7.37
3. CN1CCN(c2cc(-c3ccc4c(c3)CN(C(=O)NC3CCc5ccccc53)CC4)nc(N)n2)CC1 (stereo not drawn)	7.17

[1] CN1CCN(c2cc(-c3cc4c(cc3F)CCN(C(=O)Nc3ccc(Cl)cc3)C4)nc(N)n2)CC1
[2] CC(NC(=O)c1ccc2c(N3CCN(C)CC3)nc(N)nc2c1)c1ccccc1 (stereo not drawn)
[3] COC(=O)NC(CC(=O)N1CCc2ccc(-c3cc(N4CCN(C)CC4)nc(N)n3)cc2C1)C1CCCCC1 (stereo not drawn)
[4] COc1cccc(Oc2cccc(CNC(=O)c3ccc4c(N5CCN(C)CC5)nc(N)nc4c3)c2)c1C#N
[5] CO[C@H]1CC[C@H](NC(=O)N2CCc3ccc(-c4cc(N5CCN(C)CC5)nc(N)n4)cc3C2)CC1
Number of compounds to sort: 5. Sort criterion: pIC50, ascending. Please list each label once, in the requested order. 2, 5, 3, 1, 4

[A] CN1CCN(c2nc(N)nc3cc(C(=O)N[C@@H](Cc4ccc(-c5ccc(C#N)cn5)cc4)C(=O)N(C)C)ccc23)CC1
[B] CN1CCN(c2cc(-c3ccc4c(c3)CN(C(=O)Nc3nc5ccccc5s3)CC4)nc(N)n2)CC1
[C] CN1CCN(c2nc(N)nc3cc(C(=O)N[C@@H](Cc4ccc(-c5nc(C(F)(F)F)ccc5C#N)cc4)C(=O)N(C)C)ccc23)CC1
Number of compounds to sort: 3. Sort criterion: pIC50, ascending. Please list each label once, in the requested order. B, A, C
(B: 6.84, A: 7.26, C: 7.66)

[1] CN1CCN(c2cc(-c3ccc4c(c3)CN(C(=O)Cc3ccccc3)CC4)nc(N)n2)CC1
[2] CC(C)[C@@H](C)NC(=O)N1CCc2ccc(-c3cc(N4CCN(C)CC4)nc(N)n3)cc2C1
Sorting ascending by pIC50, which comes first: 1 or 2 ? State the label of the item chosen. 2
(2: 7.21, 1: 7.42)

[a] COC(=O)[C@H](Cc1ccc(OC(C)C)cc1)NC(=O)c1ccc2c(N3CCN(C)CC3)nc(N)nc2c1
[b] CCS(=O)(=O)N1CCC(CC(=O)N2CCc3ccc(-c4cc(N5CCN(C)CC5)nc(N)n4)cc3C2)CC1
Sorting ascending by pIC50, which comes first: a or b ? State the label of the item chosen. b

====

biological target: histamine H4 receptor (Homo sapiens, UniProt Q9H3N8); test: H4 Membrane Binding Assay (3H-Histamine displacement); details: membranes of recombinant HEK293SFM cells, 10 nM 3H-Histamine, 1.5 hr at room temperature
pIC50: −log10 of the molar value.
measured metric: pIC50

Some solved cases for reference:
1) CN1CCN(c2nc(N)nc3cc(C(=O)NC(Cc4cccc(Oc5cc(Cl)cc(Cl)c5)c4)C(=O)N(C)C)ccc23)CC1 (centres unmarked) [Example 167]	7.82
2) CN1CCN(c2nc(N)nc3cc(C(=O)NC(Cc4cccc(OCc5ccc(OC(F)(F)F)cc5)c4)C(=O)N(C)C)ccc23)CC1 (centres unmarked) [Example 177]	7.25
3) CC(NC(=O)N1CCc2ccc(-c3cc(N4CCN(C)CC4)nc(N)n3)cc2C1)c1ccccc1 (centres unmarked) [Example 51]	7.20
4) COC(=O)N1CCC(OC(=O)N2CCc3ccc(-c4cc(N5CCN(C)CC5)nc(N)n4)cc3C2)CC1 [Example 115]	7.48
5) Cc1cccnc1N1CCC(NC(=O)N2CCc3ccc(-c4cc(N5CCN(C)CC5)nc(N)n4)cc3C2)CC1 [Example 42]	6.99

[P] CN1CCN(c2nc(N)nc3cc(C(=O)NC(Cc4ccc(-c5ccccc5)cc4)c4nccs4)ccc23)CC1 (centres unmarked) [Example 151]
[Q] COC(=O)NC(C)CC(=O)N1CCc2ccc(-c3cc(N4CCN(C)CC4)nc(N)n3)cc2C1 (centres unmarked) [Example 113]
[R] CN1CCN(c2nc(N)nc3cc(C(=O)N[C@@H](Cc4ccc(-c5cncc(C(F)(F)F)c5)cc4)C(=O)N(C)C)ccc23)CC1 [Example 161]
Could you please sort these 3 entries by pIC50 from high to low? Please list each label once, in the requested order. R, P, Q

[A] CN1CCN(c2cc(-c3ccc4c(c3)CN(C(=O)Nc3ccc(C#N)cn3)CC4)nc(N)n2)CC1 [Example 43]
[B] Cc1cc2c(cc1-c1cc(N3CCN(C)CC3)nc(N)n1)CN(C(=O)Nc1ccc(Cl)cc1)CC2 [Example 77]
Sorting ascending by pIC50, which comes first: A or B ? State the label of the item chosen. B
(B: 7.02, A: 7.24)

[A] CN1CCN(c2cc(-c3ccc4c(c3)CN(C(=O)Cc3ccc(F)cc3)CC4)nc(N)n2)CC1 [Example 65]
[B] CC(NC(=O)c1ccc2c(N3CCN(C)CC3)nc(N)nc2c1)c1ccc(Br)cc1 (centres unmarked) [Example 31]
Among A and B , which shows a numerically higher pIC50 result? State the label of the item chosen. A

====

target: UniProt:Q9H3N8; assay: H4 Membrane Binding Assay (3H-Histamine displacement); details: membranes of recombinant HEK293SFM cells, 10 nM 3H-Histamine, 1.5 hr at room temperature
measured metric: IC50 (nM)

Some solved cases for reference:
1) COc1ccc(Oc2cccc(CNC(=O)c3ccc4c(N5CCN(C)CC5)nc(N)nc4c3)c2)cc1	7.5
2) CN1CCN(c2cc(-c3ccc4c(c3)CN(C(=O)NC3CCCC3)CC4)nc(N)n2)CC1	20.8
3) CN1CCN(c2nc(N)nc3cc(C(=O)NCc4ccc(Oc5ccccc5)cc4)ccc23)CC1	106
4) CN1CCN(c2cc(-c3ccc4c(c3)CN(C(=O)C(F)(F)c3ccccc3)CC4)nc(N)n2)CC1	70
5) CN1CCN(c2cc(-c3ccc4c(c3)CN(C(=O)Cc3ccc(N5CCCC5)nc3)CC4)nc(N)n2)CC1	45

[a] CN1CCN(c2nc(N)nc3cc(C(=O)NCC4CC4)ccc23)CC1
[b] COc1ccc(NC(=O)N2CCc3ccc(-c4cc(N5CCN(C)CC5)nc(N)n4)cc3C2)cn1
[c] CN1CCN(c2cc(-c3ccc4c(c3)CN(C(=O)OC3CCN(C(=O)NC5CCCC5)CC3)CC4)nc(N)n2)CC1
[d] COC(=O)c1ccc(Oc2cccc(CNC(=O)c3ccc4c(N5CCN(C)CC5)nc(N)nc4c3)c2)cc1
Could you please sort these 4 entries by IC50 from high to low? Please list each label once, in the requested order. a, c, b, d
(a: 579 nM, c: 361 nM, b: 70 nM, d: 46 nM)

====

biological target: histamine H4 receptor (Homo sapiens); construct: expressed in transfected cells; host or cells: HEK293SFM cells (membrane preparation); assay: H4 Membrane Binding Assay (3H-Histamine displacement); conditions: membranes of recombinant HEK293SFM cells, 10 nM 3H-Histamine, 1.5 hr at room temperature
measured metric: IC50 (nM)

Some solved cases for reference:
1) CC(C(=O)N1CCc2ccc(-c3cc(N4CCN(C)CC4)nc(N)n3)cc2C1)C1CCCCC1 (centres unmarked) [Example 102]	83
2) CC(NC(=O)c1ccc2c(N3CCN(C)CC3)nc(N)nc2c1)c1cccc(Oc2ncccc2C#N)c1 (centres unmarked) [Example 199]	63
3) CN1CCN(c2nc(N)nc3cc(C(=O)NC(Cc4ccc(-c5cccc(F)c5F)nc4)C(=O)N(C)C)ccc23)CC1 (centres unmarked) [Example 163]	66

[1] CN1CCN(c2cc(-c3ccc4c(c3)CN(C(=O)CC3CC3)CC4)nc(N)n2)CC1 [Example 106]
[2] CN1CCN(c2cc(-c3ccc4c(c3)CN(C(=O)Nc3ccc(C#N)nc3)CC4)nc(N)n2)CC1 [Example 44]
Sorting ascending by IC50, which comes first: 1 or 2 ? State the label of the item chosen. 1
(1: 69 nM, 2: 118 nM)
